Where these numbers come from: PubChem BioAssay

- protocol.details: small-molecule microarray binders of probe aLefty2, primary screen, biochemical, biotinylated probe, 635/667 nm fluorescence (AID 1094);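 also: score merges spot fluorescence near 667 nm with spot signal-to-noise ratio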
- reported.conditions: higher = more signal
Below, each entry is listed with its recorded composite z-score.

{"molecule": "C=CCOC(=O)[C@H]1[C@@H]2C(=O)O[C@@H](c3ccccc3)[C@@H](c3ccccc3)N2[C@@H](c2ccc(OCCOC(=O)[C@@H]3C[C@@H]4C(=O)N5CCC[C@H]5C(=O)N4[C@@H]3c3ccc(O)cc3)cc2)[C@]12C(=O)Nc1ccc(I)cc12", "composite z-score": -0.138}
{"molecule": "COCCOC(=O)N1C(=O)[C@@]2(c3cc(C#CC4=CCCCC4)ccc31)[C@H](c1ccccc1OCCO)N1[C@H](c3ccccc3)[C@H](c3ccccc3)OC(=O)[C@H]1[C@@H]2C(=O)N1CCCCCCC1", "composite z-score": -0.573}
{"molecule": "OCCCC1=CC(c2ccc(CN3CCCC3)cc2)N(Cc2sc3ccccc3c2Cl)CC1 (centres undefined)", "composite z-score": 0.0998}
{"molecule": "COC(=O)c1nc2oc1CC[C@@H](CO)NC(=O)N(C)Cc1cnnn1C[C@H](Cc1ccccc1)NC2=O", "composite z-score": -0.331}
{"molecule": "CN(C)C(=O)[C@]1(CCS(=O)(=O)c2ccccc2)N=C(c2ccc(OCCCO)cc2)O[C@@H]1c1ccccc1N=[N+]=[N-]", "composite z-score": 0.429}
{"molecule": "COCCOC(=O)N1C(=O)[C@@]2(c3cc(C#CC4=CCCCC4)ccc31)[C@H](c1ccc(OCCO)cc1)N1[C@H](c3ccccc3)[C@H](c3ccccc3)OC(=O)[C@H]1[C@@H]2C(=O)N1CCN(c2ncccn2)CC1", "composite z-score": 0.0444}
{"molecule": "CCOC(=O)C[C@H]1[C@H](OC(=O)c2ccc(C(=O)c3ccccc3)cc2)[C@@H](NC(=O)Cc2ccc(OC)cc2)c2cc(OCCCO)ccc2N1C(=O)c1ccccc1", "composite z-score": 0.0759}
{"molecule": "CC(C)(C)OC(=O)CC[C@]1(C(=O)NCC(O)CO)N=C(c2ccc(OCCCO)cc2)O[C@H]1c1ccccc1 (some centres undefined)", "composite z-score": 0.0424}
{"molecule": "COC(=O)[C@@]1(Cc2ccc(OC)cc2)[C@@H]2C(=CC(=O)[C@H]2CC(=O)C(=O)N(C)C)CN1C(=O)c1ccccc1", "composite z-score": 0.413}
{"molecule": "CCCC[C@@H]1C[C@H]1[C@@H](NC(=O)c1cccs1)c1ccc(C(F)(F)F)cc1", "composite z-score": -0.0009}
{"molecule": "C=CCC(OC(C)=O)[C@@H]1[C@@H](N(Cc2ccc(-c3ccccc3)cc2)C(=O)Cc2ccc(F)cc2)c2cc(OCCCO)ccc2N1C(=O)Cc1ccc(OC)cc1 (some centres undefined)", "composite z-score": 0.0731}
{"molecule": "COc1ccc(-c2nc(-c3ccccc3)c3c(c2C)CO[Si]3(C(C)C)C(C)C)cn1", "composite z-score": -0.162}
{"molecule": "CCCC[C@@H]1C[C@H]1[C@@H](NC(=O)c1ccccc1)c1ccc(C(F)(F)F)cc1", "composite z-score": 0.161}
{"molecule": "N#Cc1ccc(NN2C(C(O)c3ccc(F)cc3)C=CC3C(=O)N(c4ccccc4)C(=O)C32)cc1 (centres undefined)", "composite z-score": -0.0477}
